details: in ethanol, 308.15 K
measurement_label: solubility (mole fraction)

{"smiles_notation": "NS(=O)(=O)Cc1noc2ccccc12", "value_measured": 0.00316}

---

conditions: in ethanol, 293.15 K

{"smiles_notation": "NS(=O)(=O)Cc1noc2ccccc12", "solubility (mole fraction)": 0.00215}

---

settings: in DMF, 303.15 K
measurement_label: solubility (mole fraction)

{"smiles_notation": "NS(=O)(=O)Cc1noc2ccccc12", "measurement_label": "solubility (mole fraction)", "value_measured": 0.0721}

---

settings: in isopropanol, 283.15 K
measurement_label: solubility (mole fraction)

{"smiles_notation": "NS(=O)(=O)Cc1noc2ccccc12", "value_measured": 0.000963}

---

details: in acetonitrile, 318.15 K

{"smiles_notation": "NS(=O)(=O)Cc1noc2ccccc12", "solubility (mole fraction)": 0.0207}

---

conditions: in water, 313.15 K

{"smiles_notation": "NS(=O)(=O)Cc1noc2ccccc12", "solubility (mole fraction)": 0.00015}

---

conditions: in ethanol, 288.15 K

{"smiles_notation": "NS(=O)(=O)Cc1noc2ccccc12", "solubility (mole fraction)": 0.00185}

---

conditions: in DMF, 293.15 K

{"smiles_notation": "NS(=O)(=O)Cc1noc2ccccc12", "solubility (mole fraction)": 0.0514}

---

settings: in acetonitrile, 308.15 K
measurement_label: solubility (mole fraction)

{"smiles_notation": "NS(=O)(=O)Cc1noc2ccccc12", "value_measured": 0.0162}

---

conditions: in water, 323.15 K

{"smiles_notation": "NS(=O)(=O)Cc1noc2ccccc12", "solubility (mole fraction)": 0.000256}

---

conditions: in isopropanol, 288.15 K

{"smiles_notation": "NS(=O)(=O)Cc1noc2ccccc12", "solubility (mole fraction)": 0.00115}

---

conditions: in isopropanol, 278.15 K
measurement_label: solubility (mole fraction)

{"smiles_notation": "NS(=O)(=O)Cc1noc2ccccc12", "value_measured": 0.000797}

---

conditions: in isopropanol, 313.15 K

{"smiles_notation": "NS(=O)(=O)Cc1noc2ccccc12", "solubility (mole fraction)": 0.00264}

---

conditions: in water, 303.15 K

{"smiles_notation": "NS(=O)(=O)Cc1noc2ccccc12", "solubility (mole fraction)": "8.56e-05"}

---

details: in isopropanol, 303.15 K
measurement_label: solubility (mole fraction)

{"smiles_notation": "NS(=O)(=O)Cc1noc2ccccc12", "measurement_label": "solubility (mole fraction)", "value_measured": 0.00192}

---

details: in isopropanol, 323.15 K

{"smiles_notation": "NS(=O)(=O)Cc1noc2ccccc12", "solubility (mole fraction)": 0.00352}

---

settings: in isopropanol, 293.15 K

{"smiles_notation": "NS(=O)(=O)Cc1noc2ccccc12", "solubility (mole fraction)": 0.00137}

---

conditions: in ethanol, 298.15 K
measurement_label: solubility (mole fraction)

{"smiles_notation": "NS(=O)(=O)Cc1noc2ccccc12", "measurement_label": "solubility (mole fraction)", "value_measured": 0.00245}

---

conditions: in water, 293.15 K

{"smiles_notation": "NS(=O)(=O)Cc1noc2ccccc12", "solubility (mole fraction)": "4.67e-05"}

---

settings: in water, 298.15 K
measurement_label: solubility (mole fraction)

{"smiles_notation": "NS(=O)(=O)Cc1noc2ccccc12", "value_measured": "6.49e-05"}
